- System: CCRF-CEM leukemia
- ASSAY_COMMENT: NCI-60 one-dose screen, 48 h
- RUN_PARAMETERS: 10 µM unless noted
About 83,000 compounds went through this panel and 20% of them were active in at least one assay; those are over-represented in the sample as a whole. The source made the active and inactive calls. How the source made its calls: active means growth percent below 10; inactive means the rest.
Outcome codes: 1 (active), 0 (inactive)

INSERT INTO measurements (compound, category_label) VALUES
  ('CC(C)[C@H]1COC(=O)N1[C@@H]1C(=O)N([C@@H](CCC(=O)N2CCN(C3CCCC3)CC2)C(=O)N[C@@H]2CCCc3ccccc32)[C@@H]1/C=C/c1cccc(Br)c1', 0),
  ('CCCCNP1(NCCCC)=NP(NCCCC)(NCCCC)=NP(NCCCC)(NCCCC)=NP(NCCCC)(NCCCC)=N1', 1),
  ('Cn1c(=O)c2c(ncn2CC[N+](C)(C)C)n(C)c1=O', 0),
  ('CCN(CC)CCCC(C)Nc1ccnc2c(OC)cccc12 (stereo not given)', 0),
  ('CN(C)c1ccc(/C=C(\C#N)c2nc3ccccc3s2)cc1', 0),
  ('CCCCCC(=O)Oc1ccc(/C(=C(\C)c2ccccc2)c2ccc(OCCN(CC)CC)cc2)cc1', 0),
  ('OC(c1cc(-c2ccccc2)nc2ccc(Cl)cc12)C1CCCCN1 (stereo not given)', 0),
  ('COc1cccc(-c2nc3sccn3c2-c2ccnc(NCCCNS(=O)(=O)c3ccc(Cl)cc3)c2)c1', 0),
  ('CC(C)[C@@H]1CC[C@]2(C(=O)NCCCCN=C(N)N)CC[C@]3(C)[C@H](CC[C@@H]4[C@@]5(C)CCC(=O)C(C)(C)[C@@H]5CC[C@]43C)[C@@H]12', 0),
  ('Brc1cccc(-c2nc(-c3ccc4c(c3)OCCO4)co2)c1', 0),
  ('Clc1cccc(Nc2nc(Nc3cnc4ccccc4c3)c3[nH]cnc3n2)c1', 0),
  ('O=C(O)c1cccnc1Br', 0),
  ('Nc1cc2ccncc2c2ccccc12', 0),
  ('Cc1cc(N/N=C/c2nc(-c3ccc(Cl)cc3)oc2C)c2cc(Br)ccc2n1', 1),
  ('NC(=S)N/N=C/c1ccc(OCc2ccccc2)cc1', 0),
  ('C[C@H](CCC(=O)O)[C@H]1CC[C@H]2[C@@H]3CC[C@@H]4/C(=C\c5ccco5)C(=O)/C(=C\c5ccco5)C[C@]4(C)[C@H]3CC[C@]12C', 1),
  ('Oc1cc(O)c2c(=S)cc(-c3ccc(Cl)cc3)oc2c1', 0),
  ('CCCCCCCCCCCCNC(=O)[C@H]1CSC(c2ccc(OC)c(F)c2)N1 (stereo not given in full)', 1),
  ('COc1cnc2c(c1)C(=O)c1c-2n(CCCN2CCN(C)CC2)c(=O)c2cc([N+](=O)[O-])ccc12', 1),
  ('CC#Cc1nc2ccccc2c(=O)[nH]1', 0),
  ('CN1CCCCC1CCN1c2ccccc2Sc2ccc(Cl)cc21 (stereo not given)', 0),
  ('Cc1ccc(Nc2nc(N)nc(Nc3ccc4ccccc4c3)n2)cc1', 0),
  ('CC1=NNC(=O)C1C (stereo not given)', 0),
  ('CN1CCCCC1CCN1c2ccccc2Sc2ccc(Br)cc21 (stereo not given)', 0),
  ('CS(CCCCN=C=S)=NC(=O)c1c(F)c(F)c(F)c(F)c1F (stereo not given)', 0),
  ('COc1cc(NC(N)=NCC(C)(C)COc2ccc(C(F)(F)F)cc2)cnc1C#N', 0),
  ('O=[N+]([O-])c1cccc(-c2nc3sccn3c2-c2ccnc(NCCNS(=O)(=O)c3ccc(C(F)(F)F)cc3)n2)c1', 0),
  ('COc1ccc(S(=O)(=O)NCCCNc2cc(-c3c(-c4cccc(OC)c4)nc4sccn34)ccn2)cc1', 0),
  ('O=C1CCc2c(sc3[nH]c(=S)n(Cc4ccccc4)c(=O)c23)C1', 1),
  ('CCOC(=O)CC(=O)c1c(C)cc(C)cc1C', 0),
  ('O=S(=O)(NCCCNc1cc(-c2cn(-c3ccccc3)nc2-c2cccc(O)c2)ccn1)c1ccccc1', 0),
  ('CC/C(Cc1ccccc1)=C(\c1ccc(OCCN2CCCC2)cc1)c1ccc(OC(C)=O)cc1', 0),
  ('COc1cc2c(cc1O)CCc1cc(O)cc(OC)c1-2', 0),
  ('COc1ccc(C/C(C)=C(\c2ccc(OCCN3CCCCCC3)cc2)c2ccc(OC(=O)C3CCCCC3)cc2)cc1', 0),
  ('CCCCCCCCCCNC(=O)CCl', 0),
  ('CN(C)CCOc1ccc(-c2nc3ccc(-c4nc5ccc(N6CCN(C)CC6)cc5[nH]4)cc3[nH]2)cc1', 0),
  ('COc1cnc2c(c1)C(=O)c1c-2n(CCCN2CCCC2)c(=O)c2cc([N+](=O)[O-])ccc12', 1),
  ('CCOC(=O)c1c2c(n3ccc(NC(=O)CCN4CCCCC4)cc13)C(=O)c1ncccc1C2=O', 1),
  ('CCN(CC)c1ccc(/C=C/C2=[N+](C)c3ccccc3C2(C)C)cc1', 1),
  ('CN1CCN(Cc2ccc(NC(=O)c3[nH]ncc3Nc3ncnc4c3CCC4)cc2)CC1', 0);

----------
- System: HOP-92 NSCLC
- ASSAY_COMMENT: NCI-60 one-dose screen, 48 h
- RUN_PARAMETERS: 10 µM unless noted
This is part of a sample that, as a whole, favours compounds with a hit. Of some 83,000 tested, about 20% had one in any assay. The source made the active and inactive calls. The calls were made as follows: active = growth percent below 10; inactive = the rest.
Outcome codes: active, inactive

INSERT INTO assay_data (compound, category_label) VALUES
  ('COc1ccc(-c2csc(NC(=O)CN3CCN(c4cc5c(cc4F)c(=O)c(C(=O)O)cn5C4CC4)CC3)n2)cc1', 'active'),
  ('COc1ccc(CNc2nccnn2)cc1', 'inactive'),
  ('CSc1nc(NCCO)c(C#N)c(-c2cccc(N)c2)n1', 'inactive'),
  ('CCN(CC)CCCCNc1ccc(NCCCCN(CC)CC)c2c1C(=O)c1ccccc1C2=O', 'inactive'),
  ('Fc1ccc(Cc2ccc(F)cc2)cc1', 'inactive'),
  ('COc1cc(NC(N)=NCC(C)(C)COc2ccc(C(F)(F)F)cc2)cnc1C#N', 'active'),
  ('c1ccc2c(Nc3cccc4ccccc34)cccc2c1', 'inactive'),
  ('O=C(/C=C/c1ccc(Cl)cc1)c1ccc(O)c(CN2CCN(c3cc4c(cc3F)c(=O)c(C(=O)O)cn4C3CC3)CC2)c1', 'inactive'),
  ('COc1ccc(N(Cc2cc(OC)c(OC)c(OC)c2)C2OC(=O)c3ccccc32)cc1 (configuration not stated)', 'inactive'),
  ('Nc1ccc(N2CCOCC2)cc1', 'inactive'),
  ('COc1cccc(-c2cn3c(ccc4ccccc43)n2)c1', 'inactive'),
  ('CCCCCCCCCCCCCCCC[N+]1(CC)CCCC1', 'active'),
  ('CCCCCCCCCCCCCCCCCCNC(=O)[C@H]1CSC(c2ccc(F)c(OC)c2)N1 (some centres not stated)', 'active'),
  ('CC1=N/C(=C\c2cccc(Br)c2)C(=O)O1', 'inactive'),
  ('Cc1ccn2c(-c3csc(Nc4cccc(O)c4)n3)c(C)nc2c1', 'inactive'),
  ('Nc1cc2nc3ccccc3sc-2cc1=O', 'inactive'),
  ('Oc1ccccc1/C=N/Nc1ccc2ccccc2n1', 'inactive'),
  ('O=C(CN1CCOCC1)Nc1ccc(Cn2nnc3c2C(=O)c2nnn(Cc4ccc(NC(=O)CN5CCOCC5)cc4)c2C3=O)cc1', 'active'),
  ('O=C(O)C(O)C(O)C(=O)O.[NH-]C1CCCCC1[NH-].[Pt+2] (configuration not stated)', 'inactive'),
  ('COc1ccc(/C=C/C(=O)c2ccc(NC(=O)c3cc4cc5ccccc5nc4s3)cc2)cc1OC', 'inactive'),
  ('CC[n+]1ccc2c(c1)C(=O)c1nccc3c1c-2nc1ccccc13', 'active'),
  ('Cc1ccc2c(c1)O/C(=C\c1cccc(OCC(=O)c3ccccc3)c1)C2=O', 'inactive');

----------
- System: HOP-62 NSCLC
- ASSAY_COMMENT: NCI-60 one-dose screen, 48 h
- RUN_PARAMETERS: 10 µM unless noted
This is part of a sample that, as a whole, favours compounds with a hit. Of some 83,000 tested, about 20% had one in any assay. Active and inactive are the calls of the source. Rule for the calls: active = growth percent below 10; inactive = the rest.
Outcome codes: active, inactive

INSERT INTO results (compound, category_label) VALUES
  ('O=C(Cc1ccccc1)c1ccc(Cl)cc1', 'inactive'),
  ('O=[N+]([O-])c1cccc(C2CC(c3ccccc3)=Nc3ccccc3S2)c1 (stereo not given)', 'inactive'),
  ('COCCCNc1nc(NC(=O)c2ccc(F)cc2C)cc(-c2cccnc2)n1', 'inactive'),
  ('CCCCCCCCCCCCCCCC[N+]1(CC)CCCC1', 'active'),
  ('Cc1cc(Cl)ccc1Nc1nc(C(F)(F)F)ccc1C(=O)N/N=C/c1ccc(F)cc1', 'active'),
  ('COc1ccc(S(=O)(=O)NCCNc2nccc(-c3c(-c4cccc([N+](=O)[O-])c4)nc4sccn34)n2)cc1', 'inactive'),
  ('CCCCCCCCSC1=CC(=O)C(OC)=C(OC)C1=O', 'inactive'),
  ('O=[N+]([O-])c1cccc(-c2nc3sccn3c2-c2ccnc(NCCCNS(=O)(=O)c3ccc(F)cc3)n2)c1', 'inactive'),
  ('O=C(O)c1ccc(=O)[nH]n1', 'inactive'),
  ('C=CCSc1nnc(-c2ccc(C(C)(C)C)cc2)n1-c1cccc(C(F)(F)F)c1', 'inactive');

Data provenance is PubChem BioAssay (NCI).
